Biological target: T1, human GITR (human, UniProt Q9Y5U5 26-241)
T1 sequence: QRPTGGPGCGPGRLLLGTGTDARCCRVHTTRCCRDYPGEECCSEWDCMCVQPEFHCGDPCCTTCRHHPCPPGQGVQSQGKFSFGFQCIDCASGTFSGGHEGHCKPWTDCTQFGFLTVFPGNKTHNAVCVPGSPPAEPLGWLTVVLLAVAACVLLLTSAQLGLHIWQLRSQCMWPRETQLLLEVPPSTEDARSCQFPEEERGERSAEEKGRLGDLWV
Assay: cell-based or functional assay
Recorded Proliferation EC50, one value per entry.
QUANTITY: Proliferation EC50 (µg/mL)

>  <BINDER>
33C9v2 (antibody, human IgG1, kappa, V domains shown, Engineered variant; also called Ab51; SS-13808) VH: QVQVVESGGGVVQPGRSLRLSCAASGFTFSSYGMHWVRQAPGKGLEWVSVIWYEGSNKYYAESVKGRFTISRDNSKNTLYLQMNSLRAEDTAVYYCARGGLLGYYYYYGMDVWGQGTTVTVSS VL: DIQMTQSPSSLSASVGDRVTITCRASQGIRNDLGWYQQKPGKAPKRLIYDASSLQSGVPSRFSGSGSGTEFTLTISSLQPEDFATYYCLQHHSYPWTFGQGTKVEIKR

>  <TEST_RESULT>
0.007

$$$$
>  <BINDER>
5H7v5 (antibody, human IgG1, kappa, V domains shown) VH: QVQLQESGPGLVKPSETLSLTCTVSGGSISSGGYFWSWIRQPPGKGLEWIGYIYYSGTTYYNPSLKSRVTISIDTSKNQFSLKLSSVTAADTAVYYCARDLFYYESSGPRGFEPWGQGTLVTVSS VL: EIVLTQSPGTLSLSPGERATLSCRASQTVSSNYLAWYQQKPGQAPRLLIYGSSTRATGIPDRFSGSGSGTDFTLTISRLEPEDFAVYYCQQYDSSPWTFGQGTKVEIKR

>  <TEST_RESULT>
0.021

$$$$
